- assayText: xn = mol fraction of the nth substance listed, in the solute-free solvent
- measurementContext: 313.15 K; x2 = 0.2
solubility (g/100 g solution) of 6 or higher: rule met. Under 6: rule not met.

compound="CC(N)C(=O)O (stereo not given) + O + CCO" classification="rule not met"
compound="S=c1[nH]ncs1 + CO + O" classification="rule not met"
compound="Cc1ncc(C[n+]2csc(CCO)c2C)c(N)n1.O=[N+]([O-])[O-] + O + CO" classification="rule not met"
compound="CC(N)C(=O)O (stereo not given) + O + CO" classification="rule not met"
compound="CC(N)C(=O)O (stereo not given) + O + CC(C)=O" classification="rule not met"
compound="S=c1[nH]ncs1 + CC(C)=O + O" classification="rule met"
compound="CC(N)C(=O)O (stereo not given) + O + CCCO" classification="rule not met"
compound="CC(N)C(=O)O (stereo not given) + O + CC(C)O" classification="rule not met"
compound="S=c1[nH]ncs1 + CCCO + O" classification="rule met"
compound="S=c1[nH]ncs1 + CCO + O" classification="rule met"

Source of measurements: the CheMixHub drug solubility set
